- Tested on: Escherichia coli TOP10
- measurement notes: shrunken log2 fold change of peptide-encoding DNA abundance (4.5 h post-induction vs induction); higher = less antimicrobial activity (less host growth inhibition)
- assay setup: time post-induction: 4.5 h; library: site-saturation at positions 5, 18, 19, 20
measured metric: shrunken log2 fold change
// return just the number, without any unit appended

residue codes | experimental system | shrunken log2 fold change
RRIRIRPPRLPRPRPRPVGNPRP | Escherichia coli TOP10 | 0.00174
RRIRSRPPRLPRPRPRPQVHPRP | Escherichia coli TOP10 | -0.012
RRIRVRPPRLPRPRPRPATCPRP | Escherichia coli TOP10 | -0.164
RRIRMRPPRLPRPRPRPKWMPRP | Escherichia coli TOP10 | 0.21
RRIRLRPPRLPRPRPRPFNIPRP | Escherichia coli TOP10 | -0.0972

input: Missing value: shrunken log2 fold change, Escherichia coli TOP10, entry RRIRQRPPRLPRPRPRPSKQPRP . Fill in?
output: -0.0831

input: Missing value: shrunken log2 fold change, Escherichia coli TOP10, entry RRIRRRPPRLPRPRPRPKDSPRP . Fill in?
output: 0.191

input: Missing value: shrunken log2 fold change, Escherichia coli TOP10, entry RRIRQRPPRLPRPRPRPHITPRP . Fill in?
output: -1.1

input: Missing value: shrunken log2 fold change, Escherichia coli TOP10, entry RRIRFRPPRLPRPRPRPHESPRP . Fill in?
output: -0.0515

input: Missing value: shrunken log2 fold change, Escherichia coli TOP10, entry RRIRHRPPRLPRPRPRPYREPRP . Fill in?
output: 0.0421

input: Missing value: shrunken log2 fold change, Escherichia coli TOP10, entry RRIRFRPPRLPRPRPRPKTVPRP . Fill in?
output: -0.117

input: Missing value: shrunken log2 fold change, Escherichia coli TOP10, entry RRIRIRPPRLPRPRPRPKMLPRP . Fill in?
output: 0.154

input: Missing value: shrunken log2 fold change, Escherichia coli TOP10, entry RRIRCRPPRLPRPRPRPNVIPRP . Fill in?
output: -0.374

input: Missing value: shrunken log2 fold change, Escherichia coli TOP10, entry RRIRHRPPRLPRPRPRPVGIPRP . Fill in?
output: -0.294

input: Missing value: shrunken log2 fold change, Escherichia coli TOP10, entry RRIRERPPRLPRPRPRPFIWPRP . Fill in?
output: 0.0296

====

shrunken log2 fold change listing for selected sequences.
- Tested on: Escherichia coli TOP10;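 also: peptides expressed intracellularly from a pBAD plasmid library in pooled LB shake-flask culture, induced with 0.3% L-arabinose, DNA abundance read by NGS, three biological replicates, DESeq2 with apeglm shrinkage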
- measurement notes: shrunken log2 fold change of peptide-encoding DNA abundance (4.5 h post-induction vs induction); higher = less antimicrobial activity (less host growth inhibition)
- assay setup: time post-induction: 4.5 h; library: site-saturation at positions 5, 18, 19, 20
// return just the number, without any unit appended

Consider the reported shrunken log2 fold change for these sequences:
residue codes | experimental system | shrunken log2 fold change
RRIRFRPPRLPRPRPRPNIPPRP | Escherichia coli TOP10 | -0.67
RRIRVRPPRLPRPRPRPDLGPRP | Escherichia coli TOP10 | 0.155
RRIRFRPPRLPRPRPRPPFTPRP | Escherichia coli TOP10 | 0.0652
RRIRCRPPRLPRPRPRPRAEPRP | Escherichia coli TOP10 | 0.539
RRIRPRPPRLPRPRPRPVDHPRP | Escherichia coli TOP10 | 0.0611

input: Which shrunken log2 fold change value is on record for RRIRRRPPRLPRPRPRPWWKPRP ?
output: 0.226

input: Which shrunken log2 fold change value is on record for RRIRPRPPRLPRPRPRPDHSPRP ?
output: -0.082

input: Which shrunken log2 fold change value is on record for RRIRWRPPRLPRPRPRPTRVPRP ?
output: 0.825

input: Which shrunken log2 fold change value is on record for RRIRERPPRLPRPRPRPGRTPRP ?
output: 0.251

input: Which shrunken log2 fold change value is on record for RRIRNRPPRLPRPRPRPRPQPRP ?
output: 0.339

input: Which shrunken log2 fold change value is on record for RRIRLRPPRLPRPRPRPWHMPRP ?
output: 0.041

input: Which shrunken log2 fold change value is on record for RRIRYRPPRLPRPRPRPMVTPRP ?
output: 0.0309

input: Which shrunken log2 fold change value is on record for RRIRARPPRLPRPRPRPGMLPRP ?
output: 0.334

input: Which shrunken log2 fold change value is on record for RRIRTRPPRLPRPRPRPIDIPRP ?
output: 0.0364

input: Which shrunken log2 fold change value is on record for RRIRFRPPRLPRPRPRPDFFPRP ?
output: -0.027
